Values were extracted from ChEMBL document CHEMBL5236621.

STUDY TARGET: Polyunsaturated fatty acid 5-lipoxygenase (Homo sapiens, UniProt P09917)
Sequence (P09917 whole entry): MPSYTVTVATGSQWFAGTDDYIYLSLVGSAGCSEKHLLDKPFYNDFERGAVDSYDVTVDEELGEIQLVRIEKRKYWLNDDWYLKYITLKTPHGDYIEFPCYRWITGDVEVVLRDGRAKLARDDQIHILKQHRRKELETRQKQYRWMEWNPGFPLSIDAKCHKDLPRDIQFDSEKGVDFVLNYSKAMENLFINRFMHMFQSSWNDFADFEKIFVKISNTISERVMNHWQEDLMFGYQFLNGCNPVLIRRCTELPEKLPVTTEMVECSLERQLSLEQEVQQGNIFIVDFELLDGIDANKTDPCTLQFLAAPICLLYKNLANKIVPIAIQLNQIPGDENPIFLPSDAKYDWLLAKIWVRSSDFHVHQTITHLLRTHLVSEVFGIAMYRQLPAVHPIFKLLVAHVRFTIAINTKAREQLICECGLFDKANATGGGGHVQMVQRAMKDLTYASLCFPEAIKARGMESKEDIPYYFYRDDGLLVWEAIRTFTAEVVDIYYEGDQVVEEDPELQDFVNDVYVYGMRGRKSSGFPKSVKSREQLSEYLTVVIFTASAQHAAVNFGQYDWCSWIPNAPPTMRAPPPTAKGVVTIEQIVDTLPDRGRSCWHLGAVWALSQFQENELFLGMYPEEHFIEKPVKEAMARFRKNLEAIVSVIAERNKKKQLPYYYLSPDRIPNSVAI
What IC50 was measured for each of the following?
Report the figure in nM without appending any unit label.

Query: Which IC50 is reported with Polyunsaturated fatty acid 5-lipoxygenase (Homo sapiens, UniProt P09917) for this entry: Cc1ccc(-c2cc(C(F)(F)F)nn2-c2ccc(S(=O)(=O)NC(=O)c3ccccc3)cc2)cc1 ?
Result: 120

Query: Which IC50 is reported with Polyunsaturated fatty acid 5-lipoxygenase (Homo sapiens, UniProt P09917) for this entry: Cc1ccc(-c2cc(C(F)(F)F)nn2-c2ccc(S(=O)(=O)NC(=O)C(C)c3ccc(CC(C)C)cc3)cc2)cc1 (stereo not given) ?
Result: 520

Query: Which IC50 is reported with Polyunsaturated fatty acid 5-lipoxygenase (Homo sapiens, UniProt P09917) for this entry: COc1cc(C(=O)[N-]S(=O)(=O)c2ccc(-n3nc(C(F)(F)F)cc3-c3ccc(C)cc3)cc2)ccc1[O-].[Na+].[Na+] ?
Result: 460

Query: Which IC50 is reported with Polyunsaturated fatty acid 5-lipoxygenase (Homo sapiens, UniProt P09917) for this entry: Cc1ccc(-c2cc(C(F)(F)F)nn2-c2ccc(S(=O)(=O)NC(=O)CCCCC3CCSS3)cc2)cc1 (stereo not given) ?
Result: 1420
